# SYSTEM_UNDER_TEST: UniProtKB P35236
# Sequence (P35236 whole entry, looked up): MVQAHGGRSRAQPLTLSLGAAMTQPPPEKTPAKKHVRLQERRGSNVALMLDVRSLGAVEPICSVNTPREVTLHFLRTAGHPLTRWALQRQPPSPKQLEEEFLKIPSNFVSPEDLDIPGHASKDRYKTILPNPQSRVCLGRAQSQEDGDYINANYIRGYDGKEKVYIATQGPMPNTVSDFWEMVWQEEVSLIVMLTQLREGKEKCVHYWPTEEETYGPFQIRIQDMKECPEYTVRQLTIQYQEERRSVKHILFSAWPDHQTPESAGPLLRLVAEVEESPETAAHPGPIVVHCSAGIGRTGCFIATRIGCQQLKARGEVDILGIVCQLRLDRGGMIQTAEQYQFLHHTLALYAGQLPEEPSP
# PROTOCOL_DESCRIPTION: inhibition of HePTP dephosphorylation activity – biochemical, DiFMUP fluorescence, recombinant human enzyme (AID 401)
# PARTICULARS: recombinant PTPN7, DiFMUP fluorescence; at 50 µM; enzyme 37.6 ng/mL; 25 °C; DTT 5 mM; active compounds read high
I'd be grateful if you could share measured inhibition for these entries.
Report as a plain number; the unit % is understood.

For the molecule O=C(O)c1ccc(O)cn1.OO.[O]=[V] , give its measured inhibition value.
58.5

For the molecule OO.OO.[K+].[O]=[V].c1cnc2c(c1)ccc1cccnc12 , give its measured inhibition value.
55

For the molecule Cn1nc(-c2ccccc2)nc2c(=O)n(C)c(=O)nc1-2 , give its measured inhibition value.
37

For the molecule O=C([O-])c1ccccn1.OO.OO.[K+].[K+].[O]=[V] , give its measured inhibition value.
71.5
